Data origin, for the record: ChEMBL document CHEMBL1201862

- assay_protocol: Luminescence Cell-Based Dose Confirmation HTS to Identify Inhibitors of Platelet Dense Granule Release. [Related pubchem assays: 1663 (Primary HTS), 1678 (Summary of Project)]
- Format: functional
Active and inactive are the calls of the source. Rule as the data show it: actives have a measured EC50 and inactives only a lower limit.
Record form. Attribute: EC50. Fill in for each entry.

Please fill in: EC50 reported for `Cc1cccc(NC(=O)CN2CCC(C(=O)c3ccc4c(c3)OCCO4)CC2)c1` = > 112 µM (not active)

Please fill in: EC50 reported for `O=[N+]([O-])c1ccc(N=Nc2c(Cl)cc(O)cc2Cl)cc1` = 1.98 µM (active)

Please fill in: EC50 reported for COc1ccc(C2=NN(C(=O)CSC3=NN4CCCC(=O)N=C4S3)C(c3cccc(OC)c3OC)C2)cc1 (stereo unspecified) = > 112 µM (not active)

Please fill in: EC50 reported for OC(COc1ccc2ccccc2c1Br)Cn1ccnc1 (stereo unspecified) = > 112 µM (not active)

Please fill in: EC50 reported for `COc1ccc(CC(=O)Nc2cccc(-c3cn4ccccc4n3)c2)cc1` = > 112 µM (not active)

Please fill in: EC50 reported for `COc1ccc(Cc2nnc(NC(=O)c3c(-c4ccccc4)noc3C)s2)cc1` = > 112 µM (not active)
